The reader will find pIC50 measurements below, all made with UniProt:P00533.
Sequence (P00533 whole entry, looked up): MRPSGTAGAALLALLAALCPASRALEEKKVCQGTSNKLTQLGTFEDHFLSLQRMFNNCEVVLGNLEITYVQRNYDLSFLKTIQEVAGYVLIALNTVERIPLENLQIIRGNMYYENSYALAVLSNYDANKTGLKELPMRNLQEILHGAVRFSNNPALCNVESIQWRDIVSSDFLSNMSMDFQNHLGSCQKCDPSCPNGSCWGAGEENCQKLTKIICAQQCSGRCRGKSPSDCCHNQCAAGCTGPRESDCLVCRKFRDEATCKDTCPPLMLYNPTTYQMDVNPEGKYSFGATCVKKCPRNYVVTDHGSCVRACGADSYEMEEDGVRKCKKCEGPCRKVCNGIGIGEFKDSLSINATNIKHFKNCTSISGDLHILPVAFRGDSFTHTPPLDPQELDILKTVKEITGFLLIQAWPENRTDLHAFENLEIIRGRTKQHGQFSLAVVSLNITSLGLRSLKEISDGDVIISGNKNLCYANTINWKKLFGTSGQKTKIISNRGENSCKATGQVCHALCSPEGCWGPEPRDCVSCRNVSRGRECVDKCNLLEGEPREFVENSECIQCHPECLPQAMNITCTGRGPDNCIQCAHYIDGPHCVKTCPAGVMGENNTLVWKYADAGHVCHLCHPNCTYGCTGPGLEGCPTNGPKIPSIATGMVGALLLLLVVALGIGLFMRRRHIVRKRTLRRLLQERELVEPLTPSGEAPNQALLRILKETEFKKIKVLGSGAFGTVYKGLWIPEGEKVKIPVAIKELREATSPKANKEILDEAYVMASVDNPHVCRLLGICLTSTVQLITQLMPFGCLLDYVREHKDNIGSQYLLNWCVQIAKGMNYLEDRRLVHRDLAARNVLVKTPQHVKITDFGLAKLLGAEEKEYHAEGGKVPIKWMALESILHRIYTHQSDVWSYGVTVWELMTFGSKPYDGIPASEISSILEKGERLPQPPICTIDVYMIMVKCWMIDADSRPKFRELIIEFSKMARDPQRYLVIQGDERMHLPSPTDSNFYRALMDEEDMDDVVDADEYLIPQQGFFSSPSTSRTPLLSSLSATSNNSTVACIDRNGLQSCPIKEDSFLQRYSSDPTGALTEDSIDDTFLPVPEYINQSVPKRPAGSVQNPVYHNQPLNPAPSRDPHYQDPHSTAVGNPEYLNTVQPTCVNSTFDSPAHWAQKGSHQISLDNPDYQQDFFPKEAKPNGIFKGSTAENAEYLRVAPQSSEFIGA
pIC50: −log10 of the molar value.

- structure.smiles.string: "O=C(Nc1ccc(F)cc1)Nc1ncnc2nn3ccccc3c12"
  test.target: "UniProt:P00533"
  pIC50: "< 5.00"
- structure.smiles.string: "N#Cc1cccc(NC(=O)Nc2ncnc3nn4ccccc4c23)c1"
  test.target: "UniProt:P00533"
  pIC50: "< 5.00"
- structure.smiles.string: "O=C(Nc1cccc(C(F)(F)F)c1)Nc1ncnc2nn3ccccc3c12"
  test.target: "UniProt:P00533"
  pIC50: "< 5.00"
- structure.smiles.string: "c1ccc2c(CNNc3ncnc4nn5ccccc5c34)c[nH]c2c1"
  test.target: "UniProt:P00533"
  pIC50: "5.00 to 6.00"
- structure.smiles.string: "c1ccc(Cc2nc3ccc(Nc4ncnc5nn6ccccc6c45)cc3[nH]2)cc1"
  test.target: "UniProt:P00533"
  pIC50: "5.00 to 6.00"
